Each item that follows carries a reported Tm.
assay_details: melting temperature; fluorescence melt of hairpins on a sequencing array, two-state fit, raised by 9.35 °C to match UV melts
condition: sodium 0.088 M
reported_endpoint: Tm (°C)

[[record]]
chain_sequence = "TCCATGAAAATGGA (((((....)))))"
uom = "°C"
data_value = 42.2

[[record]]
chain_sequence = "CGCACGGAAACGTGGCG ((((((....))).)))"
uom = "°C"
data_value = 54.2

[[record]]
chain_sequence = "GCCCAGCGAAAGCTTAGC ((..(((....)))..))"
uom = "°C"
data_value = 32.8

[[record]]
chain_sequence = "GATCATGCGATGATC ((((((...))))))"
uom = "°C"
data_value = 46.9

[[record]]
chain_sequence = "GATCCTGCGAGGATC ((((((...))))))"
uom = "°C"
data_value = 53.9

[[record]]
chain_sequence = "GACCACCGAAAGGTTGTC (((.(((....))).)))"
uom = "°C"
data_value = 48.2

[[record]]
chain_sequence = "GCCCGCGAAAGCGTCGGC ((((((....)))..)))"
uom = "°C"
data_value = 56.5

[[record]]
chain_sequence = "GCCCGGCGAAAGCCATGC ((..(((....)))..))"
uom = "°C"
data_value = 28.8

[[record]]
chain_sequence = "GTCATTCCGAAAGGAGAC (((..(((....))))))"
uom = "°C"
data_value = 29.2

[[record]]
chain_sequence = "GGTTATGGAAACACAACC ((((.((....)).))))"
uom = "°C"
data_value = 33.8

[[record]]
chain_sequence = "GATACCGAAAGGTGATC ((((((....))).)))"
uom = "°C"
data_value = 38.1

[[record]]
chain_sequence = "GCGGGATTCCGC ((((....))))"
uom = "°C"
data_value = 59.1

[[record]]
chain_sequence = "GCTGAGCGAAAGCAGAGC (((..((....))..)))"
uom = "°C"
data_value = 45.9

[[record]]
chain_sequence = "GATCAGCGTGCTGATC ((((((....))))))"
uom = "°C"
data_value = 67.2

[[record]]
chain_sequence = "GCGAAGTGTCGC ((((....))))"
uom = "°C"
data_value = 49.6

[[record]]
chain_sequence = "GATTGGCGAAAGCCGATC (((.(((....))).)))"
uom = "°C"
data_value = 56.8

[[record]]
chain_sequence = "GCGGAGGGAAACCCCCGC ((((.((....)).))))"
uom = "°C"
data_value = 57.6

[[record]]
chain_sequence = "GTAACTGGAAACAGCTAC (((.(((....))).)))"
uom = "°C"
data_value = 34.2

[[record]]
chain_sequence = "GTAGACGAAAGTCAATAC ((((((....)))..)))"
uom = "°C"
data_value = 27.6

[[record]]
chain_sequence = "GTTGGCTCGAAAGAGAAC (((..(((....))))))"
uom = "°C"
data_value = 34.9

[[record]]
chain_sequence = "GATGACCGAAAGGTAATC (((.(((....))).)))"
uom = "°C"
data_value = 47.1

[[record]]
chain_sequence = "GAAAACGAAAGTTCTTC ((((((....))).)))"
uom = "°C"
data_value = 36.1

[[record]]
chain_sequence = "GATCTGCAGACAGATC ((((((....))))))"
uom = "°C"
data_value = 51.2

[[record]]
chain_sequence = "GCACCCGAAAGGGAGTGC ((((((....)))..)))"
uom = "°C"
data_value = 54

[[record]]
chain_sequence = "GATCTCAGTCGAGATC ((((((....))))))"
uom = "°C"
data_value = 54.1

[[record]]
chain_sequence = "GCGCCAGGAAACCGGCGC (((((.(....).)))))"
uom = "°C"
data_value = 69.1

[[record]]
chain_sequence = "GATCGCATCCGCGATC ((((((....))))))"
uom = "°C"
data_value = 68.7

[[record]]
chain_sequence = "GATCCGAAAGGATC (((((....)))))"
uom = "°C"
data_value = 66.8

[[record]]
chain_sequence = "GATCAGGTCTCTGATC ((((((....))))))"
uom = "°C"
data_value = 53.4

[[record]]
chain_sequence = "GACCTGGGAAACTGGGTC ((((..(....)..))))"
uom = "°C"
data_value = 44.4

[[record]]
chain_sequence = "GATCCCCATAGGGATC ((((((....))))))"
uom = "°C"
data_value = 62.8

[[record]]
chain_sequence = "GCTGCCGAAAGGCTAAGC ((((((....)))..)))"
uom = "°C"
data_value = 53.8

[[record]]
chain_sequence = "GATCTGACAACAGATC ((((((....))))))"
uom = "°C"
data_value = 46.5

[[record]]
chain_sequence = "GAGGCCGAAAGGCCCCTC ((((((....)))..)))"
uom = "°C"
data_value = 49.7

[[record]]
chain_sequence = "GTAAGCGGAAACGCTTGC (.(((((....))))).)"
uom = "°C"
data_value = 54.1

[[record]]
chain_sequence = "GTTACCGAAAGGTGAAC ((((((....))).)))"
uom = "°C"
data_value = 39.9

[[record]]
chain_sequence = "GCACACGAAAGTGCGTGC ((((((....)))..)))"
uom = "°C"
data_value = 52.1

[[record]]
chain_sequence = "GGAGAGCGAAAGCTATCC (((.(((....))).)))"
uom = "°C"
data_value = 57.6

[[record]]
chain_sequence = "GTCTGGACGAAAGTCGAC (((..(((....))))))"
uom = "°C"
data_value = 38.4

[[record]]
chain_sequence = "GATCGTAGTCACGATC ((((((....))))))"
uom = "°C"
data_value = 54.1

[[record]]
chain_sequence = "GGTTTCGGAAACGAGACC (((.(((....))).)))"
uom = "°C"
data_value = 50

[[record]]
chain_sequence = "GCTAAGCGAAAGCGGAGC (((..((....))..)))"
uom = "°C"
data_value = 57.2

[[record]]
chain_sequence = "GGGAACGAAAGTTTTCCC ((((((....)))..)))"
uom = "°C"
data_value = 35.5

[[record]]
chain_sequence = "GGTAAGACGAAAGTCACC (((..(((....))))))"
uom = "°C"
data_value = 39.3

[[record]]
chain_sequence = "GGCGGACCGAAAGGTGCC (((..(((....))))))"
uom = "°C"
data_value = 55.1

[[record]]
chain_sequence = "GAGGTTGGAAACAGCCTC ((((.((....)).))))"
uom = "°C"
data_value = 50.1

[[record]]
chain_sequence = "GACGGCGAAAGCCCGGTC ((((((....)))..)))"
uom = "°C"
data_value = 48.1

[[record]]
chain_sequence = "GACCCGCGAAAGCGGTC (((.(((....))))))"
uom = "°C"
data_value = 52.1

[[record]]
chain_sequence = "GCGGAGTTCCGC ((((....))))"
uom = "°C"
data_value = 59.6

[[record]]
chain_sequence = "GATCCGATTTCGGATC ((((((....))))))"
uom = "°C"
data_value = 62.6

[[record]]
chain_sequence = "GCGGAGCGAAAGCGTCGC (((..((....))..)))"
uom = "°C"
data_value = 67

